FYI, the data here is from the supplement of paper PMC9170038.

System: K4 kissing-loop RNA reporter;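 note: bound reporter read as fluorescence of individual clusters on recovered sequencing chips by microscopy, with normalized cluster intensities fitted with a binding model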
Experiment: apparent KD of K4 kissing-loop reporter; higher = weaker reporter binding
Settings: Eterna round: R107; input ligand: tryptophan 2.4 mM
Recorded endpoint: apparent KD of K4 kissing-loop reporter (µM)
Numbers only; they are read as µM.

Worked examples, 5 sequences total:
The value of apparent KD of K4 kissing-loop reporter recorded for AGGAGCGUGCGAUGUAAAUCGCACGCUCCACGAGGACCGGUACGGCCGCCACUCGCUCGUGCAGAGUGAUGUUCUGCCGGCGAAU [#2 Same State - Tryptophan A Attempt #24 (HarryS)] when tested on K4 kissing-loop RNA reporter reads 0.26

The sequence GCGCGUCAUGUCAGCGGUGACACUGUCGAUACCAGUGCCGAAAGGCGCCCUUGGCAGCGACGUGCUGGAGUGAUGUUCCAGCGUU [#2 Exclusion - Theophylline A Attempt #30 (HarryS)] , when measured on K4 kissing-loop RNA reporter, yielded apparent KD of K4 kissing-loop reporter of 0.145

Record CACGCCUGUUGUCUGGUAGACAGAUCAGAUACCAGACAUAGUGAUGUCCCUUGGCAGCUGAACAUCCAGUGAUGUUGGAUGCGUU [Theo A SS t11] has K4 kissing-loop RNA reporter apparent KD of K4 kissing-loop reporter equal to 0.371

AGUCUCAAAAGAGGCAGCACUCACGAGGACAAGGAUAUCAUCUCAAUGAGAAGGUGUCCUCGUCCCUAGUGAUGUUAGGGAGUGC [Omei KL FMN A SS E v6] on K4 kissing-loop RNA reporter gives apparent KD of K4 kissing-loop reporter = 0.437

The value of apparent KD of K4 kissing-loop reporter recorded for UAUUUAAAUAAAAUAAAAUAAAUUGCUGAUACCAGAGUCAAUUGACUCCCUUGGCAGCGGAUCGAGUGAUGUUCGUAAAAUUUAU [AK2.1 SS Theophylline A] when tested on K4 kissing-loop RNA reporter reads 0.0319

Continuing:
Hey, K4 kissing-loop RNA reporter data for UGAUAGGACAGAAGGAGCGGUAGUGAUGUUGCCAAAAGGUUAAGGUGUCAAAAGACACCCUACCAGGUAGGUCGCUGUCCUAUCU : apparent KD of K4 kissing-loop reporter came out at 0.179

Entry AAGCAGUCACUCUAAGCCAUCGAAGAUGGUCGAGGACCGGUACGGCCGCCACUCGGAGUGAUGUUCCGAAGACUGCAAAAUAAAA : apparent KD of K4 kissing-loop reporter on K4 kissing-loop RNA reporter = 0.249

Entry GGGUGGCAGGCGGCCGCCACUCUGAGCACCCACUGAGUGAUGUUCGUGGCGUAAGCCUGUUCGUAGAGGACCGGGUUUGUUGUUC [Exclusion Tryptophan B GF 15] , tested on K4 kissing-loop RNA reporter, has a reported apparent KD of K4 kissing-loop reporter of 0.23

So the reported apparent KD of K4 kissing-loop reporter for GCCUAGUGAUGUUGGGUAAUUUAAACCGGGCGAGGACCGGUACGGCCGCCACUCGGAAACACAACAAAAUUUAAUUUAAUUUAAA [Exclusion - Trytophan A] , on K4 kissing-loop RNA reporter, turned out to be 0.152

Lab entry: K4 kissing-loop RNA reporter assay, sequence CGAGUGAUGUUCGUUCGUAUAUUUGGGUGACAGGAUAUGCGGAAACGCAGAAGGGUCGCCUUCGGGUUACCCGAAUUGGCGUUUU [FMN A Model 2] , apparent KD of K4 kissing-loop reporter = 0.455

# value of apparent KD of K4 kissing-loop reporter, K4 kissing-loop RNA reporter, item UUAACCAACAGCGAUACCAGCGUGGAGUGAUGUUCCGAGGAUCGGAGUGAUGUUCCGAAGCGCCCUUGGCAGCGCAGAAGCGCCA [Exclusion Theophylline B GF9] = 0.134

Case GCCGUAGAUGGAAGGAGCGUGCGUGAAGUGAUGUUUCACGAAGAGUUUUCCACCUUAUAUGCACAGGUAGGUCGCCAUCUACGGC , K4 kissing-loop RNA reporter, apparent KD of K4 kissing-loop reporter recorded as 0.0952

Sample GCGCGUCAUGUUGGCGGGAACUAAGCCGAUACCAGCCGGGAAACCGGCCCUUGGCAGCGGCGCGCCGGAGUGAUGUUCCGACAGA [#2 Exclusion - Theophylline A Attempt #1 (HarryS)] , system: K4 kissing-loop RNA reporter. Its apparent KD of K4 kissing-loop reporter is 0.164

Item GGAUAGGACAGAGGAUAUCUCUAAAGAGGCAAGAAAACUUGUCUCAGAGAUGACUCAGUGAUGUUGAGAGAAGGCUGUCCUAUCG [FmnBX 7 - #SwitchBubble #StaticStem] ; assay system K4 kissing-loop RNA reporter; apparent KD of K4 kissing-loop reporter reported as 0.152
